Origin of values: patent US8754132B2

Target: CYP3A4 (Homo sapiens)
Sequence (P08684 whole entry): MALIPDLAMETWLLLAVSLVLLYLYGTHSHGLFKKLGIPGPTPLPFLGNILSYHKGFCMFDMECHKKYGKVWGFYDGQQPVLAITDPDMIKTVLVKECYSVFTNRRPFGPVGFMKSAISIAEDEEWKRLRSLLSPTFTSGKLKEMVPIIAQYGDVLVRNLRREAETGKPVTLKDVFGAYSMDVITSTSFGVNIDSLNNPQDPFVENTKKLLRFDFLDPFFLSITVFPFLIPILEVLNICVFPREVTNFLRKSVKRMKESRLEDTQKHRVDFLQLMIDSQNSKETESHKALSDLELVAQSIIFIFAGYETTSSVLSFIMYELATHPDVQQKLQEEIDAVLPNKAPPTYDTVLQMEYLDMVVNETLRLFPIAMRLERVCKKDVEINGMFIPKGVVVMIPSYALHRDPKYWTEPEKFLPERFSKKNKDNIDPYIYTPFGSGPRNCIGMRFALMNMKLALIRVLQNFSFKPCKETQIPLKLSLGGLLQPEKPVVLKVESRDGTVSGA
Assay: Recombinant CYP inhibition, CYP3A4
Assay type: in vitro ADME
Conditions: recombinant CYP3A4, probe testosterone, substrate testosterone, recombinant enzyme, read-out: % Inhibition at 10 μM, CYP 3A4
Structures can show the parent of a compound that is named as a salt.
Measurement label: inhibition at 5 min, 10 µM (%)
Output spec: scalar in %, unitless text.

input: Query for CYP3A4 (Homo sapiens): what inhibition at 5 min, 10 µM does the record show for NC[C@H]1C[C@@H]1c1cc(F)ccc1OCC1CC1 [(+)-12, Hydrochloride] ?
output: 25.1

====

Biological target: human 5-HT(2C) (INI) receptor (Homo sapiens)
Construct: expressed in transfected cells
Sequence (P28335 33-458): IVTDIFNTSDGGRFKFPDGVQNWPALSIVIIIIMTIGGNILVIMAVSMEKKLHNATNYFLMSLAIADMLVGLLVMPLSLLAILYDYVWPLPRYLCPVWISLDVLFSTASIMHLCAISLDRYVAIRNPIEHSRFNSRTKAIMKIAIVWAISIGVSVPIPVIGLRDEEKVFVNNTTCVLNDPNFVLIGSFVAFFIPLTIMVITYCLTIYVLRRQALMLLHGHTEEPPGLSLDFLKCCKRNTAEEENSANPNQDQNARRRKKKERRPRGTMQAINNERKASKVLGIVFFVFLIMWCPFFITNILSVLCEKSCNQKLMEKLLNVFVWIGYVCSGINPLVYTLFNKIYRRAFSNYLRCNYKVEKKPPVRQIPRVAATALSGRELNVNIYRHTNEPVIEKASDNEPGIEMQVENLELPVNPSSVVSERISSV
Assay: Calcium flux assay, stably transfected HEK-293 cells, 5-HT2C
Type: cell-based
Details: Table 2, second section; read-out: 5-HT2C EC50 ± SEM
Structures can show the parent of a compound that is named as a salt.
Measurement label: pEC50
# log scale: pEC50 equals minus log10 of the concentration in mol/L

input: // query pEC50 value for entry NCC1CC1c1cc(F)ccc1OCC1CC1 (stereo not drawn) [(+)-12, Hydrochloride]
output: 7.68
